molecular target: human TAS1R2-WT/TAS1R3-G367C (Homo sapiens, UniProt Q7RTX0+Q8TE23, G367C); construct: expressed in transfected cells; host or cells: HEK293T stably expressing Gα16gust44; assay: Calcium mobilisation assay, TAS1R2-WT with TAS1R3 variant G367C; assay type: cell-based; details: read-out: EC50
Sequence (Q8TE23 20-839): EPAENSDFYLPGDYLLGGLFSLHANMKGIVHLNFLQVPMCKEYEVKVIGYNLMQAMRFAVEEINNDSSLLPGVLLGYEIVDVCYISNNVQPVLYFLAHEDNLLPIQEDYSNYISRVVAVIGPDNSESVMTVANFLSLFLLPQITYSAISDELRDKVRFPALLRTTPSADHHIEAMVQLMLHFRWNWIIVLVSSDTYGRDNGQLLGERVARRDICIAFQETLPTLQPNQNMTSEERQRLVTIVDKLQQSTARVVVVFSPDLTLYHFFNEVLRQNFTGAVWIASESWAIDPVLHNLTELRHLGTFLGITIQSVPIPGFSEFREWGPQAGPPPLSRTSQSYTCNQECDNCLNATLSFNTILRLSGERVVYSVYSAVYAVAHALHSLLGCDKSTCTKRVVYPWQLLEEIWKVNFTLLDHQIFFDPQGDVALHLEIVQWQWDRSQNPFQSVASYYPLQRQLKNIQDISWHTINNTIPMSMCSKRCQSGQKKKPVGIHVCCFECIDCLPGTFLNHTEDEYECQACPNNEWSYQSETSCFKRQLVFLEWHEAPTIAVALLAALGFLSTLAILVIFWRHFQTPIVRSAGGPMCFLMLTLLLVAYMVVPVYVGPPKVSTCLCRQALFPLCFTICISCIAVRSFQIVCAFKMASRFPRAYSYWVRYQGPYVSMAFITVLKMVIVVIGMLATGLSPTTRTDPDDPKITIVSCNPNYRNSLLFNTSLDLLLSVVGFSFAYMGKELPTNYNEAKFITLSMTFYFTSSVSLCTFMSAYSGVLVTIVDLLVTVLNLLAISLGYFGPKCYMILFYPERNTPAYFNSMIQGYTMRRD
Sequence (Q7RTX0 21-852 G367C): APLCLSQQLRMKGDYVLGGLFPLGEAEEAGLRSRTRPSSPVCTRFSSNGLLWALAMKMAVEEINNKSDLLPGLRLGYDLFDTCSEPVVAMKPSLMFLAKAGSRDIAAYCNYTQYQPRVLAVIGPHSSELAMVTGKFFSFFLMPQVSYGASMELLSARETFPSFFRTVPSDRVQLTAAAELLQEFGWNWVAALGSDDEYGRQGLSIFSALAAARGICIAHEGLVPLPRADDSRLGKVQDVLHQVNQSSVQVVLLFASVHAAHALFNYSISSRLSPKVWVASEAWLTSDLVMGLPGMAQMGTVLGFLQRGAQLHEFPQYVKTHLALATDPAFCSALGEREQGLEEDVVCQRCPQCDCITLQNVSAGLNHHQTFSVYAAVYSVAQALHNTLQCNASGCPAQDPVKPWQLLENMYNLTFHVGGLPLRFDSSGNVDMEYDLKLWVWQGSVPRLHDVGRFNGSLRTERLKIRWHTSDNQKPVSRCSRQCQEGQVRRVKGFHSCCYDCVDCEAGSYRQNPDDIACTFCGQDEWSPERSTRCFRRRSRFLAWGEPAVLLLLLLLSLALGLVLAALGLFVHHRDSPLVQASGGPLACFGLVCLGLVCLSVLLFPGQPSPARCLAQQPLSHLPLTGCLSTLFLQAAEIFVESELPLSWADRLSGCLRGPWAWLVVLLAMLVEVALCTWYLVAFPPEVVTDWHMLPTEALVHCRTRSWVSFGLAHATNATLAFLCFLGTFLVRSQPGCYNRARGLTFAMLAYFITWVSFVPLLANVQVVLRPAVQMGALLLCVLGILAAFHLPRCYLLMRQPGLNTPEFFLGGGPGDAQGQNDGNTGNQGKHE
quantity kind: EC50 (µM)

C[C@H](CC[C@@H](O[C@@H]1O[C@H](CO[C@@H]2O[C@H](CO)[C@@H](O)[C@H](O)[C@H]2O)[C@@H](O)[C@H](O)[C@H]1O[C@@H]1O[C@H](CO)[C@@H](O)[C@H](O)[C@H]1O)C(C)(C)O)[C@H]1CC[C@@]2(C)[C@@H]3CC=C4[C@@H](CC[C@H](O[C@@H]5O[C@H](CO[C@@H]6O[C@H](CO)[C@@H](O)[C@H](O)[C@H]6O)[C@@H](O)[C@H](O)[C@H]5O)C4(C)C)[C@]3(C)[C@H](O)C[C@]12C [Mogroside V, mogroside V]    82.4

[1] COC(=O)[C@H](Cc1ccccc1)NC(=O)[C@H](CC(=O)O)NCCC(C)(C)C [Neotame]
[2] COc1ccc(CCC(=O)c2c(O)cc(O[C@@H]3O[C@H](CO)[C@@H](O)[C@H](O)[C@H]3O[C@@H]3O[C@@H](C)[C@H](O)[C@@H](O)[C@H]3O)cc2O)cc1O [NHDC, neohesperidin dihydrochalcone]
[3] C=C(C)[C@@H]1CC=C(/C=N/O)CC1 [Perillartine, perillartine]
Ordering criterion: EC50; begin with the maximum. Field: ranking. Enter the labels in the order requested.
2, 3, 1
(2: 81.3 µM, 3: 32 µM, 1: 1.95 µM)

The measurements presented in this section are drawn from paper PMC11945486.
